Test system: velvetleaf
Protocol summary: Test A postemergence
Format: in vivo, Abutilon theophrasti
Condition notes: Postemergence, 500 g ai/ha; 0 to 100 scale (0 no effect, 100 complete control)
Entry flag: rule met if Velvetleaf plant response rating reaches 30; rule not met if it does not.

> print(dat)
                                   compound   label.class
1  CCc1cc(C(=O)NCC(F)(F)F)nn1Oc1cccc(OC(F)(F)F)c1 [Compound 221]  rule not met
2  CCOc1cc(C(=O)NC2CC2)nn1Cc1ccnc(C(F)(F)F)c1 [Compound 189]      rule met
3  CCc1cc(C(=O)NN(C)C)nn1Cc1ccnc(C(F)(F)F)c1 [Compound 192]      rule met
4  CCCNC(=O)c1cc(CCC)n(Cc2cc(C(F)(F)F)nn2C)n1 [Compound 198]      rule met
5  O=C(NCC(F)(F)F)c1cc(I)n(Cc2cccc(C(F)(F)F)c2)n1 [Compound 181]  rule not met
6  CCCNC(=O)c1cc(CC)n(Cc2nc(C(F)(F)F)no2)n1 [Compound 164]      rule met

----------
Tested on: chickweed
Protocol summary: Test C postemergence
Type: in vivo, Stellaria media
Condition notes: postemergence; 125 g ai/ha; scale 0 to 100, 0 no effect, 100 complete control
Record class 1 whenever Plant response rating, Chickweed is at 60 or higher; record class 0 when lower.

> print(dat)
                  compound.structure.string  measured.on  label.class
1  CCc1cc(C(=O)NC2CC2)nn1Cc1ccnc(OCC(F)(F)F)c1    chickweed      class 1
2   CCCc1cc(C(=O)NCC)nn1Cc1ccnc(C(F)(F)F)c1    chickweed      class 1
3  CCc1cc(C(=O)NC(C)C)nn1Cc1ccnc(C(F)(F)F)c1    chickweed      class 1
4  CCOc1cc(C(=O)NC2CC2)nn1Cc1ccnc(C(F)(F)F)c1    chickweed      class 1
5  CCOc1cc(C(=O)NC(C)C)nn1Cc1ccnc(C(F)(F)F)c1    chickweed      class 1
6  CCc1cc(C(=O)NOC(C)C)nn1Cc1ccnc(C(F)(F)F)c1    chickweed      class 0

----------
System: pigweed
Protocol summary: Test C postemergence
Format: in vivo, Amaranthus retroflexus
Condition notes: postemergence, 62 g ai/ha; scale 0 to 100
Readout name: Pigweed plant response rating

> print(dat)
                                    molecule                   readout.name  val
 1  CCc1cc(C(=O)NC(C)C)nn1Cc1ccnc(C(F)(F)F)c1 [Compound 103]  Pigweed plant response rating   50
 2  CCCc1cc(C(=O)NCC)nn1Cc1ccnc(C(F)(F)F)c1 [Compound 95]  Pigweed plant response rating   40
 3  CCc1cc(C(=O)NCC2CC2)nn1Cc1ccnc(C(F)(F)F)c1 [Compound 199]  Pigweed plant response rating   60
 4  CCCc1cc(C(=O)NCC(F)(F)F)nn1Cc1ccnc(C(F)(F)F)c1 [Compound 105]  Pigweed plant response rating   85
 5  CCCNC(=O)c1cc(CCC)n(Cc2cc(C(F)(F)F)nn2C)n1 [Compound 198]  Pigweed plant response rating   60
 6  CCc1cc(C(=O)NC2CC2)nn1Cc1ccnc(OC(F)F)c1 [Compound 98]  Pigweed plant response rating   10
 7  CCOc1cc(C(=O)NCC(F)(F)F)nn1Cc1ccnc(C(F)(F)F)c1 [Compound 104]  Pigweed plant response rating   85
 8  CCOc1cc(C(=O)NC2CC2)nn1Cc1ccnc(OC(F)F)c1 [Compound 133]  Pigweed plant response rating   60
 9  CCc1cc(C(=O)NOC(C)C)nn1Cc1ccnc(C(F)(F)F)c1 [Compound 101]  Pigweed plant response rating   45
10  CCc1cc(C(=O)NC(C)C)nn1Cc1ccnc(C(F)(F)F)c1 [Compound 139]  Pigweed plant response rating   40
11  CCNC(=O)c1cc(CC)n(Cc2ccnc(C(F)(F)F)c2)n1 [Compound 196]  Pigweed plant response rating   60

----------
Tested on: johnsongrass
Protocol summary: Test C postemergence
Type: in vivo, Sorghum halepense
Condition notes: postemergence, 250 g ai/ha; scale 0 to 100 (0 no effect, 100 complete control)
Binary classification by Plant response rating, Johnsongrass, with 40 as an inclusive lower bound for y; all other cases are n.

> print(dat)
                   compound.structure.string  label.class
 1  CCCc1cc(C(=O)NCC(F)(F)F)nn1Cc1ccnc(C(F)(F)F)c1            y
 2  CCc1cc(C(=O)NCC(F)(F)F)nn1Cc1ccnc(C(F)(F)F)c1            y
 3  CCCNC(=O)c1cc(CCC)n(Cc2cc(C(F)(F)F)nn2C)n1            n
 4  CCc1cc(C(=O)NCC(F)(F)F)nn1Cc1cc(OC(F)F)nn1C            n
 5  CCCc1cc(C(=O)NCC(F)(F)F)nn1Cc1cc(C(F)(F)F)nn1C            n
 6  CCOc1cc(C(=O)NC(C)C)nn1Cc1ccnc(C(F)(F)F)c1            y
 7  Cc1cc(C(=O)NC(C)C)nn1Cc1ccnc(C(F)(F)F)c1            n
 8  CCc1cc(C(=O)NC2CC2)nn1Cc1ccnc(OCC(F)(F)F)c1            n
 9  CCNC(=O)c1cc(CC)n(Cc2ccnc(C(F)(F)F)c2)n1            n
10  CCOc1cc(C(=O)NC2CC2)nn1Cc1ccnc(C(F)(F)F)c1            n

----------
Test system: ducksalad
Protocol summary: Test B flood
Type: in vivo, Heteranthera limosa
Condition notes: 250 g ai/ha, visual rating on 0 to 100 scale (0 no effect, 100 complete control), 13 to 15 days
Would you please tag the item fulfilled when its Plant response rating, Ducksalad is 50 or above, and not fulfilled when it is below?

> print(dat)
                  compound.structure.string    label.class
1  CCc1cc(C(=O)NC2CC2)nn1Oc1ccnc(C(F)(F)F)c1      fulfilled
2  CCc1cc(C(=O)NC(C)C)nn1Cc1cc(C(F)(F)F)nn1C(C)C  not fulfilled
3  CCc1cc(-c2ccc(Br)cc2)nn1Cc1ccnc(C(F)(F)F)c1  not fulfilled
4   CCCNC(=O)c1cc(CC)n(Cc2ccnc(OC(F)F)c2)n1      fulfilled
5  CCCCNC(=O)c1cc(CC)n(Oc2ccnc(C(F)(F)F)c2)n1  not fulfilled
6  CCc1cc(C(=O)NCC(F)(F)F)nn1Cc1ccnc(OCC(F)(F)F)c1      fulfilled
7  CCCCc1cc(C(=O)NC2CC2)nn1Cc1ccnc(C(F)(F)F)c1  not fulfilled

----------
System: pigweed
Protocol summary: Test C postemergence
Type: in vivo, Amaranthus retroflexus
Condition notes: postemergence, 250 g ai/ha; scale 0 to 100 (0 no effect, 100 complete control)
Excerpt: […]
Readout name: Plant response rating, Pigweed

> print(dat)
                  compound.structure.string                    readout.name  val
1  CCc1cc(C(=O)NCC2CC2)nn1Cc1ccnc(C(F)(F)F)c1  Plant response rating, Pigweed   90
2  Cc1cc(C(=O)NC(C)C)nn1Cc1ccnc(C(F)(F)F)c1  Plant response rating, Pigweed   70
3   CCCNC(=O)c1cc(CC)n(Cc2ccnc(OC(F)F)c2)n1  Plant response rating, Pigweed   60
4  CCCc1cc(C(=O)NCC(F)(F)F)nn1Cc1ccnc(C(F)(F)F)c1  Plant response rating, Pigweed   90
5  CCCc1cc(C(=O)NOCC)nn1Cc1ccnc(C(F)(F)F)c1  Plant response rating, Pigweed   85
6  CCOc1cc(C(=O)NC(C)C)nn1Cc1ccnc(C(F)(F)F)c1  Plant response rating, Pigweed   85

----------
Test system: morningglory
Protocol summary: Test A preemergence
Type: in vivo, Ipomoea spp.
Condition notes: preemergence, 125 g ai/ha; visual injury, 0 to 100 scale, approx. 10 days
The following molecules are listed with their measured Morningglory plant response rating values.
Readout name: Morningglory plant response rating

> print(dat)
                                   molecule                        readout.name  val
1  CCCc1cc(C(=O)NCC(F)(F)F)nn1Oc1ccnc(C(F)(F)F)c1 [Compound 92]  Morningglory plant response rating    0
2  Cc1cc(C(=O)NC2CC2)nn1Cc1cc(F)cc(C(F)(F)F)c1 [Compound 14]  Morningglory plant response rating    0
3  Cc1cc(C(=O)NCC(F)(F)F)nn1Cc1ccc(F)c(C(F)(F)F)c1 [Compound 12]  Morningglory plant response rating    0
4  CCNC(=O)c1cc(CC)n(Cc2ccnc(OC(F)F)c2)n1 [Compound 130]  Morningglory plant response rating  100
5  CCNC(=O)c1cc(C)n(Cc2cccc(OC(F)(F)F)c2)n1 [Compound 4]  Morningglory plant response rating    0
6  CCCc1cc(C(=O)NCC)nn1Cc1ccnc(C(F)(F)F)c1 [Compound 95]  Morningglory plant response rating  100
7  CCc1cc(-c2ccc(C(F)(F)F)cc2)nn1Cc1nc(C(F)(F)F)nn1C [Compound 115]  Morningglory plant response rating    0
8  CCc1cc(C(=O)NC2CC2)nn1Cc1ccnc(OC(F)F)c1 [Compound 98]  Morningglory plant response rating  100
9  CCc1cc(C(=O)NCC(F)(F)F)nn1Oc1cccc(C(F)(F)F)n1 [Compound 87]  Morningglory plant response rating    0
